# Assay Notes: Selectivity index, ratio of HC50 for hemolytic activity in human RBC to MIC for antibacterial activity against Staphylococcus aureus
# Type: toxicity
# Condition: human red blood cells (erythrocytes), read-out: Selectivity Index
Measure Name: selectivity ratio
One number for each entry.

Q: GET /values?readout=selectivity ratio&item= CCCCNc1nc(NCCCC)nc(N2CC3CC(C2)CN(c2nc(NCCCC)nc(NCCCC)n2)C3)n1
Result: 400

---

# Assay Notes: Cytotoxicity against MDCK cells assessed as cell viability at 0.5 to 4 ug/ml incubated for 24 hrs by alamar blue assay relative to control
# Format: toxicity, cell-based, Canis lupus familiaris
# Condition: dog, at 0.5 to 4 µg/mL, dose 0.5-4 µg/ml, read-out: Activity
Measure Name: viability at 24 h

Q: Would you kindly share the measured viability at 24 h for CCCCNc1nc(NCCCC)nc(N2CC3CC(C2)CN(c2nc(NCCCC)nc(NCCCC)n2)C3)n1 ?
Result: > 95%

---

# Assay Notes: Selectivity index, ratio of HC50 for hemolytic activity in human RBC to MIC for antibacterial activity against Enterococcus faecium
# Assay type: toxicity
# Condition: human red blood cells (erythrocytes), read-out: Selectivity Index
Measure Name: selectivity ratio
Numbers only.

Q: // query selectivity ratio value for entry CCCCNc1nc(NCCCC)nc(N2CC3CC(C2)CN(c2nc(NCCCC)nc(NCCCC)n2)C3)n1
Result: 400

---

# Assay Notes: Selectivity index, ratio of HC50 for hemolytic activity in human RBC to MIC for antibacterial activity against methicillin-resistant Staphylococcus aureus R3889
# Format: toxicity
# Condition: human red blood cells (erythrocytes), read-out: Selectivity Index
Measure Name: selectivity ratio

Q: Item under review: CCCCNc1nc(NCCCC)nc(N2CC3CC(C2)CN(c2nc(NCCCC)nc(NCCCC)n2)C3)n1 . Reported selectivity ratio?
Result: 800

---

# Assay Notes: Selectivity index, ratio of HC50 for hemolytic activity in human RBC to MIC for antibacterial activity against vancomycin-resistant Staphylococcus aureus 1
# Assay type: toxicity
# Condition: human red blood cells (erythrocytes), read-out: Selectivity Index
Measure Name: selectivity ratio
Numbers only.

Q: Query (molecule): CCCCNc1nc(NCCCC)nc(N2CC3CC(C2)CN(c2nc(NCCCC)nc(NCCCC)n2)C3)n1 ; field requested: selectivity ratio
Result: 800

---

# Assay Notes: Selectivity index, ratio of HC50 for hemolytic activity in human RBC to MIC for antibacterial activity against Staphylococcus epidermidis
# Type: toxicity
# Condition: human red blood cells (erythrocytes), read-out: Selectivity Index
Measure Name: selectivity ratio
Answers are plain numbers.

Q: Which selectivity ratio value belongs to CCCCNc1nc(NCCCC)nc(N2CC3CC(C2)CN(c2nc(NCCCC)nc(NCCCC)n2)C3)n1 ?
Result: 400

---

# Assay Notes: Hemolytic activity in human RBC at 0.5 to 2 ug/ml incubated for 1 hr by microplate reader method relative to control
# Format: toxicity, cell-based, Erythrocyte
# Condition: human red blood cells (erythrocytes), at 0.5 to 2 µg/mL, dose 0.5-2 µg/ml, read-out: Activity
Measure Name: hemolysis at 1 h (%)
One number for each entry, in %.

Q: I am curious: what hemolysis at 1 h value has been reported for CCCCNc1nc(NCCCC)nc(N2CC3CC(C2)CN(c2nc(NCCCC)nc(NCCCC)n2)C3)n1 ?
Result: 0

---

# Assay Notes: Selectivity index, ratio of HC50 for hemolytic activity in human RBC to MIC for antibacterial activity against methicillin-resistant Staphylococcus aureus R3545
# Format: toxicity
# Condition: human red blood cells (erythrocytes), read-out: Selectivity Index
Measure Name: selectivity ratio
Numbers only.

Q: GET /values?readout=selectivity ratio&item= CCCCNc1nc(NCCCC)nc(N2CC3CC(C2)CN(c2nc(NCCCC)nc(NCCCC)n2)C3)n1
Result: 800
